Assay Info: protein stability index of a GFP-peptide fusion (GPS, HEK-293T) (PSI 1-6); higher = more stable;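 note: 24-mer peptide tiles fused after GFP, lentivirally expressed, FACS-sorted into six equal bins by GFP/DsRed ratio, decoded by Illumina sequencing, PSI is the read-weighted mean bin number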
Setup Conditions: treatment: MLN4924 1 uM, 8 h; c terminus: a fixed tail appended
As shown below, each of these sequences has a reported protein stability index value.
Write no unit; give the number alone.

In [3]: df
Out[3]:
                       sequence_chain  test_result
0  SFVESANSEVYLPNINKISMQAVL [RHOBTB1]          2.2
1    VAGVLPDIEQFFNIGDSSSGLIQT [SPNS1]         3.32
2   CGKCFSQNTHLTRHQRTHTGEKPY [ZNF263]         3.22
3  EHDAWFIFFMAAFAFSNGYLASLC [SLC29A1]         3.25
4     LTSADRETAEEVSARIVQVVTAEA [MAP2]         4.89
5   HAIYSLSYPMRRSYRYKLLNWAYQ [STEAP1]         2.63

Now for a further sequence.
Lookup: For the sequence shown here, SATLVGFTVGSVLGQILVSVAGWS [SLC19A2] , give the reported protein stability index.
Found: 3.23
